target: acetylcholine receptor (Homo sapiens); assay: SPR binding affinity (RU) of optimized 5mer/6mer/7mer peptides, Examples 6-7; settings: SPR, Resonance Units; peptides tested at 10 μM; 6mer-1 Bottom sequence
Sequence (P02708 21-457): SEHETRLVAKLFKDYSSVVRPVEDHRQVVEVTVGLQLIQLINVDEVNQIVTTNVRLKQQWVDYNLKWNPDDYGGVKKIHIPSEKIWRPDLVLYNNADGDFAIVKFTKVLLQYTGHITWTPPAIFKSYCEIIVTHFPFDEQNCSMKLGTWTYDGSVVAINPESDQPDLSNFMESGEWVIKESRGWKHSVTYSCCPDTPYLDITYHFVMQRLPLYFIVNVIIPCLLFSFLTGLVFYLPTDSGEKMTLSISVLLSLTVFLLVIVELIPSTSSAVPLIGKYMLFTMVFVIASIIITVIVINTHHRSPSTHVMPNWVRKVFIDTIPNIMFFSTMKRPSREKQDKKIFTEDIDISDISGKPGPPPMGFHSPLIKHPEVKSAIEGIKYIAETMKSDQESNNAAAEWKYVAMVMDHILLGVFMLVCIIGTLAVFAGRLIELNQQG
I'd appreciate it if you could label each record using Binding affinity and these ranges: class A = under 30 Ru, class B = from 30 Ru up to 40 Ru, class C = 40 Ru and over

{"Substance": "6mer-1-1107 (KRCPPR)", "Group Label": "class B"}
{"Substance": "6mer-1-1120 (RRKEAK)", "Group Label": "class A"}
{"Substance": "6mer-1-1091 (KKDDGK)", "Group Label": "class B"}
{"Substance": "6mer-1-1144 (KKCMGR)", "Group Label": "class A"}
{"Substance": "6mer-1-1157 (RKESVR)", "Group Label": "class B"}

Bin this entry: 6mer-1-1181 (RRMDAK)
class A

Do the same for 6mer-1-1110 (RKFTER) please
class A

Do the same for 6mer-1-1028 (RRHCWR) please
class B

Do the same for 6mer-1-1092 (RKYHDK) please
class C

Do the same for 6mer-1-1076 (RKKEPK) please
class C

Do the same for 6mer-1-1139 (KKMENR) please
class B

Do the same for 6mer-1-1150 (KRKWWR) please
class B

---

biological target: acetylcholine receptor (Homo sapiens); test: SPR binding affinity (RU) of optimized 5mer/6mer/7mer peptides, Examples 6-7; details: SPR, Resonance Units; peptides tested at 10 μM; 6mer-1 Bottom sequence (Table 11)
Below, each entry is listed with its recorded Binding affinity.
Number first, unit second.

Example entries begin here.
{"Substance": "6mer-1-755 (RRANMR)", "Value": "25 Ru"}
{"Substance": "6mer-1-666 (KKAANK)", "Value": "18 Ru"}
{"Substance": "6mer-1-720 (RRKHKR)", "Value": "11 Ru"}

# get_value(readout='Binding affinity', item= 6mer-1-625 (KREDKK) )
33 Ru

Do the same for 6mer-1-740 (RKDNKR) please
26 Ru

Do the same for 6mer-1-683 (KRDSMR) please
16 Ru

Do the same for 6mer-1-745 (KKTMEK) please
11 Ru

Do the same for 6mer-1-688 (RKDEVR) please
33 Ru

Do the same for 6mer-1-708 (KKKHEK) please
14 Ru

Do the same for 6mer-1-730 (KRATFR) please
13 Ru

Do the same for 6mer-1-725 (KKDKPK) please
32 Ru

Do the same for 6mer-1-713 (KKATNK) please
20 Ru

Do the same for 6mer-1-710 (KKMHHR) please
21 Ru

Do the same for 6mer-1-760 (KRMMVR) please
21 Ru

Do the same for 6mer-1-697 (RRPTNR) please
13 Ru

Do the same for 6mer-1-728 (RRDNAR) please
23 Ru

Do the same for 6mer-1-741 (RKEAGR) please
24 Ru

Do the same for 6mer-1-611 (KKNCHK) please
23 Ru

Do the same for 6mer-1-782 (KKNAWK) please
30 Ru

Do the same for 6mer-1-630 (KRMEPR) please
14 Ru

Do the same for 6mer-1-785 (KKTCER) please
19 Ru

Do the same for 6mer-1-601 (KKEWNK) please
27 Ru

Do the same for 6mer-1-748 (RKHNGR) please
24 Ru

Do the same for 6mer-1-743 (KKTMVR) please
14 Ru

Do the same for 6mer-1-739 (RKCCEK) please
32 Ru

Do the same for 6mer-1-649 (RRIAGK) please
32 Ru

Do the same for 6mer-1-702 (KRDWVK) please
31 Ru

Do the same for 6mer-1-654 (KRMNDR) please
23 Ru
